// data source = PubChem BioAssay (NCI)

Test system: SF-539 CNS
MEASUREMENT PROTOCOL: NCI tumour cell line growth inhibition, 48 h; in the data active = GI50 below about 0.43 µM; inactive = the rest
Tick one outcome: true (active), false (inactive)

{"columns": ["MOLECULE", "CLASSIFICATION"],
 "data": [
  ["NCC1OC(OC2C(CO)OC(OC3C(O)C(N)CC(N)C3OC3OC(CO)C(O)C(O)C3N)C2O)C(N)C(O)C1O (configuration not stated)", "false"],
  ["COc1ccc(/C=C/c2cc(N3CCOCC3)c3cc(F)c(F)cc3n2)cc1OC", "false"],
  ["C#COc1cccc(Nc2ncnc3ncc(NC(=O)CCl)cc23)c1", "false"],
  ["COc1cc(C2CC(c3cc(C)ccc3C)=NN2c2ccc(S(=O)(=O)NC(=O)NCc3ccccc3)cc2)cc(OC)c1OC (configuration not stated)", "false"],
  ["CC1=C(/C=C/C(C)=C/C=C/C(C)=C/C(=O)Nc2ccc(O)cc2)C(C)(C)CCC1", "true"],
  ["COC(=O)[C@@]1(C)CC[C@]2(C)CC[C@]3(C)C4=CC=C5C(=CC(=O)C(O)=C5C)[C@]4(C)CC[C@@]3(C)[C@@H]2C1", "true"]
]}

Shifting focus to the molecule that follows.
[Q] Outcome? `COc1cc([C@@H]2c3cc4c(cc3[C@H](O)[C@H]3COC(=O)[C@H]23)OCO4)cc(OC)c1OC`
[A] true

----------
Tested on: LOX IMVI melanoma
MEASUREMENT PROTOCOL: NCI tumour cell line growth inhibition, 48 h; in the data active = GI50 below about 0.43 µM; inactive = the rest
In this exercise, the only acceptable responses are active, inactive

Past entries and their recorded results:
{"columns": ["COMPOUND", "CLASSIFICATION"],
 "data": [
  ["CN(C)CCCNc1nccc(-c2c(-c3ccc(F)cc3)nn3cc(C(F)(F)F)ccc23)n1", "inactive"],
  ["O=C1C(Cl)=C(Nc2cccc(O)c2)C(=O)N1c1ccc(Cl)c(Cl)c1", "inactive"],
  ["COc1ccc(-c2nn(-c3cccc(NC(=O)Nc4cc(C(F)(F)F)cc(C(F)(F)F)c4)c3)cc2-c2ccncc2)cc1Cl", "inactive"],
  ["CCOC(=O)c1c(C)n2c(=O)cc(C)c3c(OC(C)=O)c(OC(C)=O)cc1c32", "inactive"],
  ["COc1ccc(/C=C\\c2cc(OC)c(OC)c(OC)c2)cc1OC(=O)c1cccc(Cn2cc(CCOC(=O)c3cccc(Cn4nnc5c4C(=O)c4ccccc4C5=O)c3)nn2)c1", "active"]
]}

[Q] Hi, do you know how `COc1ccc(-c2cc(/C=C3\C(=O)Nc4ccc(OC)cc43)[nH]n2)cc1` came out in this test?
[A] inactive

[Q] Tell me the assay call for `CC1=C(/C=C/C(C)=C/C=C/C(C)=C/C(=O)Nc2ccc(O)cc2)C(C)(C)CCC1` please.
[A] inactive

[Q] Called result for `C=C1C(=O)O[C@@H]2C[C@@H]1CC[C@@]1(C)O[C@@H]1CC[C@@]1(C)O[C@@H]1CC[C@@]2(C)O`
[A] inactive

[Q] # lookup: test call for COc1cccc(C2NC(=S)NC(C)=C2C(=O)Nc2ccc(F)c(Cl)c2)c1 (centres undefined)
[A] inactive

----------
Test system: HOP-18 NSCLC
MEASUREMENT PROTOCOL: NCI tumour cell line growth inhibition, 48 h
Where a SMILES comes first, the peptide text is derived from it. [ ]: non-standard residue; d: D form. The star is where a group is joined. ξ: configuration not given here. NMeF = CN[C@@H](Cc1ccccc1)C(=O)O; ξNMeV = CNC(C(=O)O)C(C)C; Boc = CC(C)(C)OC(=O)*; OBn = c1ccc(CO*)cc1
RECORDED METRIC: TGI

Please supply TGI for each of the following items, keeping them in order.
1. CC(C)(C)[Si](C)(C)O/N=C\c1ccc(O[Si](C)(C)C(C)(C)C)cc1
2. CCN(CC)C(=S)SC1CCOP(=O)(N(CCCl)CCCl)N1C (stereo not given)
3. CC(C)C(C(=O)N1CCC[C@@H]1C(=O)OCc1ccccc1)N(C)C(=O)C(C(C)C)N(C)C(=O)[C@H](Cc1ccccc1)N(C)C(=O)[C@H](NC(=O)OC(C)(C)C)C(C)C (stereo not given in full) (Boc-[dV][NMeF][ξNMeV][ξNMeV][dP]-OBn)
4. CC1(C)CCc2cc3c(-c4ccccc4)cc(=O)oc3cc2O1
5. O=c1c2ccccc2nc(-c2ccccc2)n1NC(=S)Nc1ccc(Cl)cc1[N+](=O)[O-]
6. CC(C)=CCc1c(C)cc2cc3c(c(O)c2c1O)C(O)=CC(=O)C3(CC=C(C)C)C/C=C(\C)CO (stereo not given)

[A]
["> 100 µM", "> 100 µM", "> 100 µM", "> 100 µM", "> 100 µM", "35.3 µM"]

Hi there! I need TGI for each item below, if you can.
1. CC1(C)C2CCC3(OCCO3)C1C1OC12 (stereo not given)
2. COc1ccc(C2ON(c3ccccn3)CC=C2C)cc1 (stereo not given)
3. O=C1C2CCC(C2)C12CC1(c3ccccc3)C(=O)c3ccccc3N1O2 (stereo not given)

[A]
["> 100 µM", "> 100 µM", "> 100 µM"]

State the recorded TGI for every item in the following list.
1. Cc1nc2ccccc2c(=O)n1CC(=O)O
2. Cc1cc(NS(=O)(=O)c2ccc(NC(=O)c3cccc4c(Nc5ccc(S(=O)(=O)Nc6cc(C)on6)cc5)c5ccccc5nc34)cc2)no1
3. CCOc1ccc2c(ccc(/C=C\c3cc(C)c4cccnc4c3O)[n+]2C)c1
4. CC1=C[C@]2(CC(C)C3C(CC4(C)C5CCC6C(C)(C)C(=O)CC[C@@]67C[C@@]57CC[C@]34C)O2)OC1=O (stereo not given in full)
5. CN1C2C=C(c3ccccc3)CC1CC2 (stereo not given)
6. O=C(O)C1CCCCN1C(=O)c1ccccc1 (stereo not given)

[A]
> 100 µM
69.3 µM
7.49 µM
> 100 µM
> 100 µM
> 100 µM

----------
Test system: KM12 colon
MEASUREMENT PROTOCOL: NCI tumour cell line growth inhibition, 48 h
RECORDED METRIC: TGI

Example entries begin here.
{"columns": ["COMPOUND", "ASSAYED SYSTEM", "TGI"],
 "data": [
  ["CC1OC(OC2C(O)COC(OC3C(C)OC(OC4C(OC(=O)[C@]56CCC(C)(C)C[C@@H]5C5=CCC7[C@@]8(C)C[C@H](O)[C@H](OC9OC(CO)C(O)C(OC%10OC(CO)C(O)C(O)C%10O)C9O)[C@@](C)(CO)[C@@H]8CC[C@@]7(C)[C@]5(C)CC6)OCC(O)C4O)C(O)C3OC3OCC(O)C(O)C3O)C2O)C(O)C(O)C1O (some centres undefined)", "KM12 colon", "33.5 µM"],
  ["COc1ccc(/C=N/NC(=O)NCCCN(C)C)cc1", "KM12 colon", "> 100 µM"],
  ["CN(C)CCN=Cc1c2ccccc2c(=O)n2c1oc1ccccc12", "KM12 colon", "21.7 µM"],
  ["c1ccc2c3c([nH]c2c1)C1c2[nH]c4ccccc4c2CCN1CC3", "KM12 colon", "41.3 µM"],
  ["CC1(C)C(=S)C(C)(C)C1=S", "KM12 colon", "> 100 µM"],
  ["Clc1ccc(-c2nn3ncccc3c2-c2ccnc(Nc3ccccc3)n2)cc1", "KM12 colon", "> 25 µM"],
  ["CCC1CC(=O)N(SCC(N)C(=O)O)C1=O (centres undefined)", "KM12 colon", "> 100 µM"],
  ["CC(C)OP(=O)(OC(C)C)/C(=N/N)NNc1ccc([N+](=O)[O-])cc1", "KM12 colon", "> 100 µM"]
]}

Here is another compound to look at.
[Q] May I ask what TGI has been recorded for `Nc1nc(NNc2ccc(Cl)c(Cl)c2)cc(=O)[nH]1` ?
[A] > 100 µM

----------
System: SK-MEL-2 melanoma
MEASUREMENT PROTOCOL: NCI tumour cell line growth inhibition, 48 h; in the data active = GI50 below about 0.43 µM; inactive = the rest
I would appreciate it if you answered using one of these outcomes: active, inactive

[Q] Called result for `CN(C)CCCNc1nccc(-c2c(-c3ccc(F)cc3)nn3cc(C(F)(F)F)ccc23)n1`
[A] inactive

[Q] // return assay outcome for CCOC(=O)C1=C(C)NC2SC(=O)/C(=C\c3ccccc3)N2C1c1ccccc1 (stereo not drawn)
[A] inactive

[Q] Short answer needed: outcome of this test for `COc1ccc(-c2cc(/C=C3\C(=O)Nc4ccc(OC)cc43)[nH]n2)cc1` ?
[A] inactive

----------
System: IGROV1 ovarian
MEASUREMENT PROTOCOL: NCI tumour cell line growth inhibition, 48 h; in the data active = GI50 below about 0.43 µM; inactive = the rest
Outcomes you can answer with include only these: yes (1) (active), no (0) (inactive)

{"columns": ["MOLECULE", "CLASSIFICATION"],
 "data": [
  ["COc1cccc(C2NC(=S)NC(C)=C2C(=O)Nc2ccc(F)c(Cl)c2)c1 (centres undefined)", "no (0)"]
]}

[Q] Tell me the assay call for `COC(=O)[C@@]1(C)CC[C@]2(C)CC[C@]3(C)C4=CC=C5C(=CC(=O)C(O)=C5C)[C@]4(C)CC[C@@]3(C)[C@@H]2C1` please.
[A] yes (1)

[Q] Name the outcome recorded for `O=C1c2ccccc2-c2c1c1ccccc1c(=O)n2CCCN1CCN(CCCn2c3c(c4ccccc4c2=O)C(=O)c2ccccc2-3)CC1` in the assay.
[A] no (0)
